Ratio values by entry
Tested on: Nucleic Acid
measurementDescription: Binding affinity to Escherichia coli 23S rRNA U2585 assessed as degree of protection against CMCT at 50 uM by Chemical footprinting analysis relative to control
Format: nucleic-acid assay

{"compound": "C=C[C@]1(C)C[C@@H](OC(=O)Cn2cc(/C=C/Cn3cnc4c(N)ncnc43)nn2)[C@]2(C)[C@H](C)CC[C@]3(CCC(=O)[C@H]32)[C@@H](C)[C@@H]1O", "Ratio": 0.16}
{"compound": "C=C[C@]1(C)C[C@@H](OC(=O)CSCCN(CC)CC)[C@]2(C)[C@H](C)CC[C@]3(CCC(=O)[C@H]32)[C@@H](C)[C@@H]1O [TIAMULIN]", "Ratio": 0.5}
{"compound": "C=C[C@]1(C)C[C@@H](OC(=O)Cn2cc(C[C@@H]3[C@H](O)[C@@H](CO)O[C@H]3n3ccc(=O)[nH]c3=O)nn2)[C@]2(C)[C@H](C)CC[C@]3(CCC(=O)[C@H]32)[C@@H](C)[C@@H]1O", "Ratio": 0.26}
{"compound": "C=C[C@]1(C)C[C@@H](OC(=O)Cn2cc(CCCn3cnc4c(N)ncnc43)nn2)[C@]2(C)[C@H](C)CC[C@]3(CCC(=O)[C@H]32)[C@@H](C)[C@@H]1O", "Ratio": 0.17}

---

System: Nucleic Acid
measurementDescription: Binding affinity to Escherichia coli 23S rRNA U2506 assessed as degree of protection against CMCT at 50 uM by Chemical footprinting analysis relative to control
Format: nucleic-acid assay
Cut-off 0.05 on Ratio, inclusive. At or above means rule met; below means rule not met.

{"chemicalSmiles": "C=C[C@]1(C)C[C@@H](OC(=O)CSCCN(CC)CC)[C@]2(C)[C@H](C)CC[C@]3(CCC(=O)[C@H]32)[C@@H](C)[C@@H]1O", "discreteLabel": "rule not met"}
{"chemicalSmiles": "C=C[C@]1(C)C[C@@H](OC(=O)Cn2cc(/C=C/Cn3cc(C)c(=O)[nH]c3=O)nn2)[C@]2(C)[C@H](C)CC[C@]3(CCC(=O)[C@H]32)[C@@H](C)[C@@H]1O", "discreteLabel": "rule met"}
{"chemicalSmiles": "C=C[C@]1(C)C[C@@H](OC(=O)Cn2nncc2CCCn2cnc3c(N)ncnc32)[C@]2(C)[C@H](C)CC[C@]3(CCC(=O)[C@H]32)[C@@H](C)[C@@H]1O", "discreteLabel": "rule not met"}
{"chemicalSmiles": "C=C[C@]1(C)C[C@@H](OC(=O)Cn2cc(-c3ccc(-n4cnc5c(N)ncnc54)cc3)nn2)[C@]2(C)[C@H](C)CC[C@]3(CCC(=O)[C@H]32)[C@@H](C)[C@@H]1O", "discreteLabel": "rule met"}

---

Test system: Nucleic Acid
measurementDescription: Binding affinity to Escherichia coli 23S rRNA U2585 assessed as degree of protection against CMCT at 5 uM by Chemical footprinting analysis relative to control
Assay type: nucleic-acid assay
I would appreciate it if you labelled entries TRUE when Ratio is 0.4 or higher, otherwise FALSE.

{"compound": "C=C[C@]1(C)C[C@@H](OC(=O)Cn2ccnn2)[C@]2(C)[C@H](C)CC[C@]3(CCC(=O)[C@H]32)[C@@H](C)[C@@H]1O", "discreteLabel": "TRUE"}
{"compound": "C=C[C@]1(C)C[C@@H](OC(=O)Cn2cc(COCc3ccccc3)nn2)[C@]2(C)[C@H](C)CC[C@]3(CCC(=O)[C@H]32)[C@@H](C)[C@@H]1O", "discreteLabel": "TRUE"}
{"compound": "C=C[C@]1(C)C[C@@H](OC(=O)CO)[C@]2(C)[C@H](C)CC[C@]3(CCC(=O)[C@@H]32)[C@@H](C)[C@@H]1O [PLEUROMUTILIN]", "discreteLabel": "TRUE"}
{"compound": "C=C[C@]1(C)C[C@@H](OC(=O)Cn2cc(COCCn3cc(C)c(=O)[nH]c3=O)nn2)[C@]2(C)[C@H](C)CC[C@]3(CCC(=O)[C@H]32)[C@@H](C)[C@@H]1O", "discreteLabel": "TRUE"}
{"compound": "C=C[C@]1(C)C[C@@H](OC(=O)Cn2cc(COCn3cc(C)c(=O)[nH]c3=O)nn2)[C@]2(C)[C@H](C)CC[C@]3(CCC(=O)[C@H]32)[C@@H](C)[C@@H]1O", "discreteLabel": "FALSE"}
{"compound": "C=C[C@]1(C)C[C@@H](OC(=O)Cn2cc(CCCn3cnc4c(N)ncnc43)nn2)[C@]2(C)[C@H](C)CC[C@]3(CCC(=O)[C@H]32)[C@@H](C)[C@@H]1O", "discreteLabel": "FALSE"}
{"compound": "C=C[C@]1(C)C[C@@H](OC(=O)Cn2cc(C[C@@H]3[C@H](O)[C@@H](CO)O[C@H]3n3ccc(=O)[nH]c3=O)nn2)[C@]2(C)[C@H](C)CC[C@]3(CCC(=O)[C@H]32)[C@@H](C)[C@@H]1O", "discreteLabel": "TRUE"}

---

Ratio values, listed per item
System: Nucleic Acid
measurementDescription: Binding affinity to Escherichia coli 23S rRNA U2506 assessed as degree of protection against CMCT at 5 uM by Chemical footprinting analysis relative to control
Format: nucleic-acid assay
assayMetric: Ratio

{"compound": "C=C[C@]1(C)C[C@@H](OC(=O)Cn2cc(CCCn3cnc4c(N)ncnc43)nn2)[C@]2(C)[C@H](C)CC[C@]3(CCC(=O)[C@H]32)[C@@H](C)[C@@H]1O", "recordedNumber": 0.13}
{"compound": "C=C[C@]1(C)C[C@@H](OC(=O)CO)[C@]2(C)[C@H](C)CC[C@]3(CCC(=O)[C@@H]32)[C@@H](C)[C@@H]1O [PLEUROMUTILIN]", "recordedNumber": 0.28}
{"compound": "C=C[C@]1(C)C[C@@H](OC(=O)Cn2cc(/C=C/Cn3cc(C)c(=O)[nH]c3=O)nn2)[C@]2(C)[C@H](C)CC[C@]3(CCC(=O)[C@H]32)[C@@H](C)[C@@H]1O", "recordedNumber": 0.18}
{"compound": "C=C[C@]1(C)C[C@@H](OC(=O)Cn2cc(COCCn3cc(C)c(=O)[nH]c3=O)nn2)[C@]2(C)[C@H](C)CC[C@]3(CCC(=O)[C@H]32)[C@@H](C)[C@@H]1O", "recordedNumber": 0.28}
{"compound": "C=C[C@]1(C)C[C@@H](OC(=O)Cn2cc(-c3cccc(-n4cnc5c(N)ncnc54)c3)nn2)[C@]2(C)[C@H](C)CC[C@]3(CCC(=O)[C@H]32)[C@@H](C)[C@@H]1O", "recordedNumber": 0.06}

---

Below is a list of entries, each paired with its recorded Ratio value.
Tested on: Nucleic Acid
measurementDescription: Binding affinity to Escherichia coli 23S rRNA U2585 assessed as degree of protection against CMCT at 5 uM by Chemical footprinting analysis relative to control
Format: nucleic-acid assay
assayMetric: Ratio

{"compound": "C=C[C@]1(C)C[C@@H](OC(=O)Cn2nncc2CCCn2cnc3c(N)ncnc32)[C@]2(C)[C@H](C)CC[C@]3(CCC(=O)[C@H]32)[C@@H](C)[C@@H]1O", "assayMetric": "Ratio", "recordedNumber": 0.19}
{"compound": "C=C[C@]1(C)C[C@@H](OC(=O)CSC(C)(C)CNC(=O)[C@H](N)C(C)C)[C@]2(C)[C@H](C)CC[C@]3(CCC(=O)[C@H]32)[C@@H](C)[C@@H]1O [VALNEMULIN]", "assayMetric": "Ratio", "recordedNumber": 0.15}
{"compound": "C=C[C@]1(C)C[C@@H](OC(=O)Cn2cc(-c3cccc(-n4cnc5c(N)ncnc54)c3)nn2)[C@]2(C)[C@H](C)CC[C@]3(CCC(=O)[C@H]32)[C@@H](C)[C@@H]1O", "assayMetric": "Ratio", "recordedNumber": 0.1}

---

Attribute: Ratio
Tested on: Nucleic Acid
measurementDescription: Binding affinity to Escherichia coli 23S rRNA U2506 assessed as degree of protection against CMCT at 5 uM by Chemical footprinting analysis relative to control
Assay type: nucleic-acid assay

{"chemicalSmiles": "C=C[C@]1(C)C[C@@H](OC(=O)Cn2nncc2CCCn2cnc3c(N)ncnc32)[C@]2(C)[C@H](C)CC[C@]3(CCC(=O)[C@H]32)[C@@H](C)[C@@H]1O", "Ratio": 0.09}
{"chemicalSmiles": "C=C[C@]1(C)C[C@@H](OC(=O)Cn2cc(COCn3cnc4c(N)ncnc43)nn2)[C@]2(C)[C@H](C)CC[C@]3(CCC(=O)[C@H]32)[C@@H](C)[C@@H]1O", "Ratio": 0.21}
{"chemicalSmiles": "C=C[C@]1(C)C[C@@H](OC(=O)CSC(C)(C)CNC(=O)[C@H](N)C(C)C)[C@]2(C)[C@H](C)CC[C@]3(CCC(=O)[C@H]32)[C@@H](C)[C@@H]1O", "Ratio": 0.05}
